Tested on: Wnt5a (protein binding on small-molecule microarray)
experiment: Wnt5a binders on small-molecule microarray, primary screen, biophysical, 635/667 nm fluorescence (AID 1142);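 further: fluorescence read at 667 nm with signal to noise per printed feature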
assay conditions: 635 nm fluorescence, higher = more signal
Please use Condition met whenever composite z-score is not below 0.3, and Condition not met whenever it is.

compound	classification
COCCOC(=O)N1C(=O)[C@@]2(c3cc(C#CC4(O)CCCCCC4)ccc31)[C@H](c1ccc(O)cc1)N1[C@H](c3ccccc3)[C@H](c3ccccc3)OC(=O)[C@H]1[C@@H]2C(=O)NC[C@H](O)c1ccccc1	Condition met

Form field: composite z-score at least 0.3? Entry: C=CCC(OC(C)=O)[C@@H]1[C@@H](N(Cc2cc3ccccc3o2)C(=O)Cc2ccc(F)cc2)c2cc(OCCCO)ccc2N1C(=O)c1ccc2ccccc2c1 (stereo partly drawn)
Condition not met

Form field: composite z-score at least 0.3? Entry: CCCCN1CC=CC23O[C@@H]4/C=C\CCC(C)OC(=O)C4[C@H]2C(=O)N(C(CO)C(C)C)[C@@H]3C1=O (stereo partly drawn)
Condition not met

Form field: composite z-score at least 0.3? Entry: CN1C(=O)C2C=CC(C(O)COCc3ccccc3)N(N(c3ccccc3)c3ccccc3)C2C1=O (stereo not drawn)
Condition not met

Form field: composite z-score at least 0.3? Entry: `COC(=O)[C@@]1(Cc2ccccc2)[C@H]2c3cc(C(=O)N(C)C)n(CCN4CNCC4=O)c3C[C@H]2CN1C(=O)c1ccccc1`
Condition met

Form field: composite z-score at least 0.3? Entry: `[N-]=[N+]=Nc1ccccc1C[C@]1(C(=O)N2CCOCC2)N=C(c2ccc(OCCCO)cc2)O[C@H]1c1ccccc1`
Condition met

Form field: composite z-score at least 0.3? Entry: `CCOC(=O)C[C@H]1[C@H](OC(=O)Cc2ccc3c(c2)OCO3)[C@@H](NC(=O)Cc2ccc(OC)cc2)c2cc(OCCCO)ccc2N1C(=O)c1ccc2ccccc2n1`
Condition not met

Form field: composite z-score at least 0.3? Entry: `CC1=C([C@H](O)CCc2ccccc2)[C@H](CO)[C@@H]2C(=O)N(C)C(=O)[C@@H]2C1`
Condition not met

----------
For each record, write down the corresponding composite z-score.
System: Neuregulin-1 EGF-like domain
experiment: binders of neuregulin-1 EGF-like domain, primary screen, biochemical, small-molecule microarray, 635 nm fluorescence (AID 1081);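 further: binding of the protein to compounds printed on small-molecule microarray slides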
assay conditions: small-molecule microarray binding, higher = more signal
Numbers only.

compound	value reported
COC(=O)[C@@]1(Cc2ccccc2N=[N+]=[N-])N=C(c2ccc(OCCCO)cc2)O[C@H]1c1ccccc1N=[N+]=[N-]	1.27

Give me composite z-score for each of these compounds, listed below.
1. O=C1O[C@H](c2ccccc2)[C@H](c2ccccc2)N2[C@H]1[C@@H](C(=O)NC[C@H](O)c1ccccc1)[C@]1(C(=O)Nc3ccc(C#CCCO)cc31)[C@H]2c1ccc(OCCO)cc1
2. COc1ccc([Si](C)(C)[C@@H]2[C@@H](CC(=O)N3Cc4ccccc4C[C@H]3CO)O[C@]3(C(=O)N(Cc4cccc(N5C(=O)c6cccc7cccc5c67)c4)c4ccccc43)[C@H]2C)cc1
3. CCCCCCCCCCC(O)C1C=CC2C(=O)N(C)C(=O)C2N1Nc1ccc([N+](=O)[O-])cc1[N+](=O)[O-] (configuration not stated)

[1.23, 1.04, 0.975]

Give me composite z-score for each of these compounds, listed below.
1. COc1cccc(/C=C/C=O)c1
2. CC(C)C[C@@H]1NC(=O)[C@@H]2C[C@H](C(=O)NCCCCN(C)C)[C@H](c3cccc(OCCO)c3)N2C1=O
3. C=CCN1C(=O)[C@@]2(CCS(=O)(=O)c3ccccc3)N=C(c3ccc(OCCCO)cc3)O[C@H]2c2ccccc21

-0.443
1.19
1.24

----------
For each record, write down the corresponding z-score.
experiment: FRG1 promoter luciferase signal modulators, primary screen, FRG1 inhibition for FSHD, cell-based, C2C12 myotubes, firefly/Renilla luciferase, luminescence (AID 1084)
assay conditions: higher = more signal, called active from +8 up or from −8 down
One number for each entry.

Please review the entries below; each comes with its answer.
molecule	quantity name	value reported
C=CCC(OC(C)=O)[C@@H]1[C@@H](N(Cc2cc3ccccc3o2)C(=O)c2ccc(-c3ccccc3)cc2)c2cc(OCCCO)ccc2N1C(=O)c1ccc2ccccc2c1 (stereo partly drawn)	z-score	-3.52
CCOC(=O)C[C@H]1[C@H](OC(=O)Cc2ccc3c(c2)OCO3)[C@@H](NC(=O)Cc2ccc(OC)cc2)c2cc(OCCCO)ccc2N1C(=O)c1ccc2ccccc2n1	z-score	-3.56

So what does the record say about z-score for `O=C1O[C@H](c2ccccc2)[C@H](c2ccccc2)N2[C@H]1[C@@H](C(=O)O)[C@]1(C(=O)Nc3ccc(C#CC4=CCCCC4)cc31)[C@H]2c1ccc(O)cc1` ?
-0.179

----------
study target: Pro-neuregulin-1, membrane-bound isoform (Homo sapiens) (UniProt Q02297)
Sequence (Q02297 whole entry, looked up, canonical isoform): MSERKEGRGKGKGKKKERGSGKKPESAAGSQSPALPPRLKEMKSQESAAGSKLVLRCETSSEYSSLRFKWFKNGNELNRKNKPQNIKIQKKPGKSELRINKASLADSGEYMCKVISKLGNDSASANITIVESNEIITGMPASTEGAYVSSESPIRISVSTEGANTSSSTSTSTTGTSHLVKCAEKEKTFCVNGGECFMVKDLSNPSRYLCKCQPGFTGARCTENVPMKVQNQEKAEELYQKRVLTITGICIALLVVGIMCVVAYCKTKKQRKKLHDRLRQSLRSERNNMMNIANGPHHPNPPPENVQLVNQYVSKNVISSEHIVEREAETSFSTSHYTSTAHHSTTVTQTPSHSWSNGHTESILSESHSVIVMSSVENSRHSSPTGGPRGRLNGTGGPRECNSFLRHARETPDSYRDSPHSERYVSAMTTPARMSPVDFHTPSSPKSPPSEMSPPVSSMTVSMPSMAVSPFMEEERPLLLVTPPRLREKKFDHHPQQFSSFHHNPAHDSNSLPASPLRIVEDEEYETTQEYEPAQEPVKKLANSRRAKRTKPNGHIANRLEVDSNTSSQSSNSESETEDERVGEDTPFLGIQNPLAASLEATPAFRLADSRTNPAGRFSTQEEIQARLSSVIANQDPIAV
experiment: NRG1 binders on small-molecule microarrays, primary screen, psychiatric disease protein project, biochemical, small-molecule microarray, fluorescence 635/667 (AID 1075);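 further: score combines 667 nm spot fluorescence with signal to noise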
assay conditions: NRG1 binding, 635 nm fluorescence, higher = more signal
For each record, write down the corresponding composite z-score.
Numbers only.

compound	composite z-score
COC(=O)c1cn(C[C@@H](Cc2ccccc2)NC(=O)N[C@H](CO)CCc2oc(C(C)=O)c(C(=O)OC)c2C(=O)OC)nn1	0.165
OCCCC1=CC(c2ccc(CN3CCCC3)cc2)N(Cc2sc3ccccc3c2Cl)CC1 (configuration not stated)	0.65
COc1cc2c(cc1OC)CN(C(=O)[C@@H]1[C@H]3C(=O)O[C@H](c4ccccc4)[C@H](c4ccccc4)N3[C@H](c3ccc(OCCO)cc3)[C@@]13C(=O)Nc1ccc(C#CC4(O)CCCCCC4)cc13)CC2	1.67
CC(CO)N1C(=O)[C@@H]2[C@H]3C(=O)OCC=C[C@H]3OC23C=CCN(Cc2ccccc2)C(=O)[C@@H]13 (some centres not stated)	-0.622
COCCCNC(=O)[C@@]1(Cc2ccccc2N=[N+]=[N-])COC(c2ccc(OCCCO)cc2)=N1	1.54
COC(=O)c1c2oc(c1C(=O)OC)C(=O)N(Cc1ccccc1)Cc1cn(nn1)C[C@H](Cc1ccccc1)NC(=O)N[C@H](CO)CC2	0.229

Okay, next one:
So what does the record say about composite z-score for `C=C(COC)/C(=C/C[C@H](OC(C)=O)c1ccc(OCCO)cc1)c1cc(C(=O)OC)ccc1OC` ?
0.697

----------
experiment: small-molecule microarray binders of probe aNog, primary screen, biochemical, biotinylated probe, 635/667 nm fluorescence (AID 1115);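 further: probe is biotinylated aNog protein used at 0.15 µg/mL for 1 h at 4 C; z-score combines 667 nm fluorescence of each spot with its signal to noise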
assay conditions: higher = more signal
Please use 1 (yes) whenever composite z-score is not below -0.1, and 0 (no) whenever it is.

compound	classification
COCCCNC(=O)[C@@]1(Cc2ccccc2CN=[N+]=[N-])N=C(c2ccc(OCCCO)cc2)O[C@H]1c1ccccc1	1 (yes)
O=C(N1CCCCC1)[C@@]1(CCS(=O)(=O)c2ccccc2)COC(c2ccc(OCCCO)cc2)=N1	0 (no)
COCCCNC(=O)[C@]1(CCS(=O)(=O)c2ccccc2)N=C(c2ccc(OCCCO)cc2)O[C@@H]1c1ccccc1N=[N+]=[N-]	1 (yes)
O=C1O[C@H](c2ccccc2)[C@H](c2ccccc2)N2[C@H]1[C@@H](C(=O)Nc1nc3ccccc3s1)[C@]1(C(=O)Nc3ccccc31)[C@H]2c1ccc(OCCO)cc1	0 (no)
OCC1CC(c2ccccc2)=NO1 (stereo unspecified)	1 (yes)
CCOC(=O)C1=CC[C@@H](c2ccccc2C(F)(F)F)N(S(=O)(=O)c2ccc(C)cc2)[C@H]1c1ccc(C#N)cc1	0 (no)
[N-]=[N+]=NCc1ccccc1[C@H]1OC(c2ccc(OCCCO)cc2)=N[C@@]1(CCS(=O)(=O)c1ccccc1)C(=O)NCC(O)CO (stereo partly specified)	1 (yes)
C=C(C)C1CCC(C(O)C2C=CC3C(=O)N(C)C(=O)C3N2N2CCCCC2)CC1 (stereo unspecified)	1 (yes)

Form field: composite z-score at least -0.1? Entry: `CCOC(=O)C[C@H]1[C@H](OC(=O)c2ccc(C(=O)c3ccccc3)cc2)[C@@H](NC(=O)Cc2ccc(OC)cc2)c2cc(OCCCO)ccc2N1C(=O)c1ccccc1`
1 (yes)

Form field: composite z-score at least -0.1? Entry: CC(=O)c1ccc(C(O)C2C=CC3C(=O)N(c4ccccc4)C(=O)C3N2Nc2ccc(C#N)cc2)cc1 (stereo unspecified)
0 (no)

Form field: composite z-score at least -0.1? Entry: `NC(N)=NCCCn1cc(CNC(=O)[C@@H](N)Cc2ccccc2)nn1`
1 (yes)

Form field: composite z-score at least -0.1? Entry: N#Cc1ccc(NN2C(C(O)c3ccc(F)cc3)C=CC3C(=O)N(c4ccccc4)C(=O)C32)cc1 (stereo unspecified)
1 (yes)

Form field: composite z-score at least -0.1? Entry: `CCCCO[C@H]1C[C@H]2C(I)=C[C@@H]1C(=O)[C@]21CO1`
1 (yes)

Form field: composite z-score at least -0.1? Entry: `COC(=O)c1c2oc(c1C(=O)OC)C(=O)N(C)Cc1cn(nn1)C[C@H](Cc1ccccc1)NC(=O)N[C@H](CO)CC2`
0 (no)

Form field: composite z-score at least -0.1? Entry: CCOC(=O)C1CCCCN1 (stereo unspecified)
1 (yes)
